Attribution: patent US12371454B2

target: Kras and SOS1 (biotin-tagged human Kras loaded with GDP, His-tagged human SOS1) (Homo sapiens, UniProt P01116, G12D); construct: made in house; host or cells: E. coli (stated for Kras only); assay: Protein-protein interaction inhibition between Kras and SOS1 (KrasGl2D-SOS PPI) using AlphaScreen; type: binding; details: AlphaScreen; biotin-tagged human Kras loaded with GDP, His-tagged human SOS1; read-out: KRAS G12D-SOS PPI IC50
Sequence (P01116 1-188 isoform P01116-2 G12D): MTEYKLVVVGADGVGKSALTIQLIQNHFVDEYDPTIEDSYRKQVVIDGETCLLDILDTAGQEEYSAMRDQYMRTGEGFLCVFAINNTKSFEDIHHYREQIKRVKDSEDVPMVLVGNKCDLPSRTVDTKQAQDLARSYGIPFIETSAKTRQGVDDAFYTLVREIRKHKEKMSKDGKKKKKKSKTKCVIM
pIC50: −log10 of the molar value. Starred links: 1 amine or outer side, 2 acyl side, 3 side chain; linkers in the order of their positions; H or OH if unused. Positions of bridges follow the written chain, without caps; N, C: chain ends. Non-standard residues stand in square brackets, D forms with d. Residues, ends and D or L forms follow the SMILES beside them. *: point of attachment. hPhe(3,5-F2-4-CF3) = N[C@@H](CCc1cc(F)c(C(F)(F)F)c(F)c1)C(=O)O; hPhe(3-Cl-4-CF3) = N[C@@H](CCc1ccc(C(F)(F)F)c(Cl)c1)C(=O)O; hPhe(3-F,4-CF3) = N[C@@H](CCc1ccc(C(F)(F)F)c(F)c1)C(=O)O; NMePhe(4-CF3) = CN[C@@H](Cc1ccc(C(F)(F)F)cc1)C(=O)O; X49 = Cn1ccc2cc(CC[C@H](N[*:1])C(=O)[*:2])ccc21; Phe(2-CF3) = N[C@@H](Cc1ccccc1C(F)(F)F)C(=O)O; NMePhe(4-Me) = CN[C@@H](Cc1ccc(C)cc1)C(=O)O; NMedβ3hAla = C[C@H](CC(=O)[*:2])N(C)[*:1]; NMeGly(cPent) = CN[C@H](C(=O)O)C1CCCC1; Phe(3-I) = N[C@@H](Cc1cccc(I)c1)C(=O)O; Pro(4,4-F2) = O=C(O)[C@@H]1CC(F)(F)CN1; NMeCha = CN[C@@H](CC1CCCCC1)C(=O)O; NEtLeu = CCN[C@@H](CC(C)C)C(=O)O; NMeChg = CN[C@H](C(=O)O)C1CCCCC1; N(CH2CH2)2CF2 = FC1(F)CCN(*)CC1; NMeD = CN[C@@H](CC(=O)O)C(=O)O; NMeL = CN[C@@H](CC(C)C)C(=O)O; NMeV = CN[C@H](C(=O)O)C(C)C; d(β3hA) = C[C@@H](N)CC(=O)O; NMeS = CN[C@@H](CO)C(=O)O; NMeA = CN[C@@H](C)C(=O)O; NMeAib = CNC(C)(C)C(=O)O; Piperidide = C1CCN(*)CC1; dNMeA = CN[C@H](C)C(=O)O; Ac5c = NC1(C(=O)O)CCCC1; Aze = O=C(O)[C@@H]1CCN1; Ac4c = NC1(C(=O)O)CCC1; CH2CMe2OH = CC(C)(O)C*; X14 = CC1(C)CCN(*)C1; βAla = NCCC(=O)O; Sar = CNCC(=O)O
measurement type: pIC50

{"compound": "CC[C@H](C)[C@@H]1NC(=O)[C@H](CC(C)C)N(C)C(=O)C[C@@H](C)N(C)C(=O)[C@H](C2CCCCC2)N(C)C(=O)C2(CCC2)NC(=O)[C@@H]2CC(F)(F)CN2C(=O)[C@H](CCc2cc(F)c(C(F)(F)F)c(F)c2)NC(=O)CN(C)C(=O)[C@H](Cc2ccc(C(F)(F)F)cc2)N(C)C(=O)CN(C)C(=O)CN(C)C1=O [Compound 579] (cyclo([Ac4c][NMeChg][NMedβ3hAla][NMeL]I[Sar][Sar][NMePhe(4-CF3)][Sar][hPhe(3,5-F2-4-CF3)][Pro(4,4-F2)]))", "measurement type": "pIC50", "measured number": 7.77}
{"compound": "CC[C@H](C)[C@@H]1NC(=O)CCNC(=O)[C@H](COCC(C)(C)O)N(C)C(=O)[C@H](C2CCCCC2)N(C)C(=O)C2(CCCC2)NC(=O)[C@@H]2CCCN2C(=O)[C@H](CCc2ccc(C(F)(F)F)c(Cl)c2)NC(=O)CN(C)C(=O)[C@H](CC2CCCCC2)N(C)C(=O)CN(C)C(=O)CN(C)C1=O [Compound 605] (cyclo([Ac5c][NMeChg][NMeS](CH2CMe2OH)[βAla]I[Sar][Sar][NMeCha][Sar][hPhe(3-Cl-4-CF3)]P))", "measurement type": "pIC50", "measured number": 8.05}
{"compound": "CC[C@H](C)[C@@H]1NC(=O)[C@H](CC(C)C)N(C)C(=O)C[C@@H](C(=O)N(C)C)N(C)C(=O)[C@H](C2CCCC2)N(C)C(=O)C2(CCCC2)NC(=O)[C@@H]2CC(F)(F)CN2C(=O)[C@H](CCc2cc(F)c(C(F)(F)F)c(F)c2)NC(=O)CN(C)C(=O)[C@H](CC2CCCCC2)N(C)C(=O)[C@@H]2CCN2C(=O)[C@H](C)N(C)C1=O [Compound 1346] ([NMeL]I[NMeA][Aze][NMeCha][Sar][hPhe(3,5-F2-4-CF3)][Pro(4,4-F2)][Ac5c][NMeGly(cPent)][NMeD]-NMe2; lactam N-11)", "measurement type": "pIC50", "measured number": 9.22}
{"compound": "CC[C@H](C)[C@@H]1NC(=O)[C@H](C)N(C)C(=O)C[C@@H](C(=O)N2CCCCC2)N(C)C(=O)[C@H](C(C)C)N(C)C(=O)[C@H](CC(C)C)NC(=O)[C@H](CC(=O)N2CCC(F)(F)CC2)N(C)C(=O)[C@H](CCc2ccc(C(F)(F)F)c(Cl)c2)NC(=O)CN(C)C(=O)[C@H](CC2CCCCC2)N(C)C(=O)CN(C)C(=O)CN(C)C1=O [Compound 826] ([NMeA]I[Sar][Sar][NMeCha][Sar][hPhe(3-Cl-4-CF3)][NMeD](N(CH2CH2)2CF2)L[NMeV][NMeD]-Piperidide; lactam N-11)", "measurement type": "pIC50", "measured number": 6.96}
{"compound": "CC[C@H](C)[C@@H]1NC(=O)[C@H](CC(C)C)N(C)C(=O)C[C@@H](C(=O)N2CCCCC2)N(C)C(=O)[C@H](C2CCCC2)N(C)C(=O)C2(CCCC2)NC(=O)[C@@H]2CCCN2C(=O)[C@H](CCc2ccc3c(ccn3C)c2)NC(=O)CN(C)C(=O)[C@H](CC2CCCCC2)N(C)C(=O)[C@@H]2CCN2C(=O)[C@H](C)N(C)C1=O [Compound 2064] ([NMeL]I[NMeA][Aze][NMeCha][Sar][X49]P[Ac5c][NMeGly(cPent)][NMeD]-Piperidide; lactam N-11)", "measurement type": "pIC50", "measured number": 7.92}
{"compound": "CC[C@H](C)[C@@H]1NC(=O)[C@H](C)N(C)C(=O)C[C@@H](C)NC(=O)[C@H](C2CCCC2)N(C)C(=O)C2(CCCC2)NC(=O)[C@@H]2CCCN2C(=O)[C@H](CCc2ccc(C(F)(F)F)c(Cl)c2)NC(=O)[C@@H](C)N(C)C(=O)[C@H](CC2CCCCC2)N(C)C(=O)CN(C)C(=O)CN(C)C1=O [Compound 1535] (cyclo([Ac5c][NMeGly(cPent)][d(β3hA)][NMeA]I[Sar][Sar][NMeCha][dNMeA][hPhe(3-Cl-4-CF3)]P))", "measurement type": "pIC50", "measured number": 7.39}
{"compound": "CC[C@H](C)[C@@H]1NC(=O)[C@H](CC(C)C)N(C)C(=O)C[C@@H](C(=O)N2CCC(C)(C)C2)N(C)C(=O)[C@H](C2CCCCC2)N(C)C(=O)C2(CCCC2)NC(=O)[C@@H]2CCCN2C(=O)[C@H](CCc2ccc(C(F)(F)F)c(Cl)c2)NC(=O)CN(C)C(=O)[C@H](CC2CCCCC2)N(C)C(=O)CN(C)C(=O)CN(C)C1=O [Compound 1150] ([NMeL]I[Sar][Sar][NMeCha][Sar][hPhe(3-Cl-4-CF3)]P[Ac5c][NMeChg][NMeD]-X14; lactam N-11)", "measurement type": "pIC50", "measured number": 9.28}
{"compound": "CC[C@H](C)[C@@H]1NC(=O)[C@H](CC(C)C)N(C)C(=O)C[C@@H](C(=O)N2CCCCC2)N(C)C(=O)[C@H](CC(C)C)NC(=O)C(C)(C)N(C)C(=O)[C@H](Cc2ccccc2C(F)(F)F)NC(=O)[C@H](Cc2cccc(I)c2)NC(=O)CN(C)C(=O)[C@H](Cc2ccc(C)cc2)N(C)C(=O)[C@@H]2CCN2C(=O)CN(C)C1=O [Compound 791] ([NMeL]I[Sar][Aze][NMePhe(4-Me)][Sar][Phe(3-I)][Phe(2-CF3)][NMeAib]L[NMeD]-Piperidide; lactam N-11)", "measurement type": "pIC50", "measured number": 6.49}
{"compound": "CC[C@H](C)[C@@H]1NC(=O)[C@H](CC(C)C)N(CC)C(=O)C[C@@H](C(=O)N(C)C)N(C)C(=O)[C@H](C2CCCC2)N(C)C(=O)C2(CCCC2)NC(=O)[C@@H]2CCCN2C(=O)[C@H](CCc2ccc(C(F)(F)F)c(F)c2)NC(=O)CN(C)C(=O)[C@H](CC2CCCCC2)N(C)C(=O)[C@@H]2CCN2C(=O)[C@H](C)N(C)C1=O [Compound 1324] ([NEtLeu]I[NMeA][Aze][NMeCha][Sar][hPhe(3-F,4-CF3)]P[Ac5c][NMeGly(cPent)][NMeD]-NMe2; lactam N-11)", "measurement type": "pIC50", "measured number": 8.92}
